targetOrSystem: UniProt:P00734
experimentDescription: Concentration required for 50% inhibition of dilute prothrombin time
Record form. Attribute: pIC50. Fill in for each entry.
Give bare numbers, as −log10 of the molar value.

Worked cases, pIC50 given:
CC(C)N1CCC(NC(=O)c2cc3ccccc3n2CC(=O)Nc2ccc(Cl)cn2)CC1 7.70
CC(C)N1CCC(NC(=O)c2cc3ccccc3n2Cc2cc3ccc(Cl)cc3s2)CC1 6.05

# evaluate next
Fill blank: measured pIC50 of the compound CC(C)N1CCC(NC(=O)c2cc3ccccc3n2CC(=O)Nc2ccc(Cl)cc2)CC1 is ____.
7.70

---

The reader will find Ki measurements below, all made with UniProt P00734.

Each of the following entries comes with a recorded value; kindly state Ki for each.
1. CC(C)N1CCC(NC(=O)c2cc3ccccc3n2CC(=O)Nc2ccc(Cl)cc2)CC1
2. CC(C)N1CCC(NC(=O)c2cc3ccccc3n2CC(=O)Nc2ccc(Cl)cn2)CC1

> 10 µM
> 10 µM

---

Record form. Attribute: remaining at 2 h. Fill in for each entry.
experimentDescription: Percent compound remaining after 2 hr incubation with human S9 liver fraction
Type: ADME, subcellular
experimentalContext: read-out: Activity
Numbers only, in %.

Worked cases, remaining at 2 h given:
CC(C)N1CCC(NC(=O)c2cc3ccccc3n2CC(=O)Nc2ccc(Cl)cc2)CC1 67
CC(C)N1CCC(NC(=O)c2cc3ccccc3n2CC(=O)Nc2ccc(Cl)cn2)CC1 95
CC(C)N1CCC(NC(=O)c2cc3ccccc3n2Cc2cc3ccc(Cl)cc3s2)CC1 98

# evaluate next
Fill blank: measured remaining at 2 h of the molecule CC(C)N1CCC(NC(=O)c2cc3ccccc3n2Cc2cc(-c3ccc(Cl)s3)on2)CC1 is ____.
94

---

targetOrSystem: Tissue-type plasminogen activator (Homo sapiens, UniProt P00750)
Sequence (P00750 whole entry): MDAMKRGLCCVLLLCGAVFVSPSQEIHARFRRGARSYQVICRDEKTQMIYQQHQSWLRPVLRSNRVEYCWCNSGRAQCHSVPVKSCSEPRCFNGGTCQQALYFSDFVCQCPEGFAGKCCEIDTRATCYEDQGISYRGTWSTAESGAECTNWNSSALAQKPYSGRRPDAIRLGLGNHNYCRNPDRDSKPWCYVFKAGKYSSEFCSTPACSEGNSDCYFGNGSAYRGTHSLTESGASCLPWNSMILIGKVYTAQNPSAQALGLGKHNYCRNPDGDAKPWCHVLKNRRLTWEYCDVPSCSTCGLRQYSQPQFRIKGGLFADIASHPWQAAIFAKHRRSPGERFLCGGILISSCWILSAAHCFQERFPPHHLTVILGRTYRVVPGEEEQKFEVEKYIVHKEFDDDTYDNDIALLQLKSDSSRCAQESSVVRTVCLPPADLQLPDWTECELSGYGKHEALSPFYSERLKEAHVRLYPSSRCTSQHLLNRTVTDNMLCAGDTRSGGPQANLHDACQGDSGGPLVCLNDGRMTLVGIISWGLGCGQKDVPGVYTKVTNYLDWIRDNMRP
readoutName: Ki

CC(C)N1CCC(NC(=O)c2cc3ccccc3n2CC(=O)Nc2ccc(Cl)cc2)CC1 > 100 µM

Fill blank: measured Ki of the molecule CC(C)N1CCC(NC(=O)c2cc3ccccc3n2CC(=O)Nc2ccc(Cl)cn2)CC1 is ____.
> 100 µM

---

The reader will find log10(Ki) measurements below, all made with Coagulation factor X (Homo sapiens).
Sequence (P00742 41-179 limits assumed): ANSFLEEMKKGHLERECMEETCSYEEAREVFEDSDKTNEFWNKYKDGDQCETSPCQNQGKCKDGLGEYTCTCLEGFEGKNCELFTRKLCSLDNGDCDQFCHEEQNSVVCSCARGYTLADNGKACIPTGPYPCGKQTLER
Sequence (P00742 235-488 limits assumed): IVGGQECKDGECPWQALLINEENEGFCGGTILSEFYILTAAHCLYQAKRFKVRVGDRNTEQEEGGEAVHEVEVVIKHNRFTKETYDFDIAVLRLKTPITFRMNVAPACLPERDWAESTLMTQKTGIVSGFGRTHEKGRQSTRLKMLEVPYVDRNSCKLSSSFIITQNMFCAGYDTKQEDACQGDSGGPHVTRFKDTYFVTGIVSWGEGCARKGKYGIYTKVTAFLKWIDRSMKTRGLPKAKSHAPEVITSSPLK
Scale: decimal log of Ki, Ki in µM.

Worked cases, log10(Ki) given:
CC(C)N1CCC(NC(=O)c2cc3ccccc3n2-c2cccc(Cl)c2)CC1 0.95
CC(C)N1CCC(NC(=O)c2cc3ccccc3n2Cc2ccc(Cl)cc2)CC1 0.40
CC(C)N1CCC(NC(=O)c2cc3ccccc3n2CC(=O)Nc2cccc(Cl)c2)CC1 -0.54
COc1cccc(-n2c(C(=O)NC3CCN(C(C)C)CC3)cc3ccccc32)c1 0.39

Fill blank: measured log10(Ki) of the compound CC(C)N1CCC(NC(=O)c2cc3ccccc3n2Cc2cnc(-c3ccc(Cl)cc3)s2)CC1 is ____.
0.44
